FYI, the data here is from PubChem BioAssay (NCI).

Test: NCI Yeast Anticancer Drug Screen. Data for the mgt1 strain (AID 153)
Settings: S. cerevisiae mgt1 mutant growth inhibition; at 1.2 µM; stronger effect = higher value
The panel holds about 79,000 compounds, 15% with a hit somewhere; the sample as a whole holds those more often.
endpoint label: growth inhibition (%)
Report the figure in % without appending any unit label.

Reference set (3 entries):
In [3]: df
Out[3]:
                                   molecule  numeric_result
0  O=C(NCCNCCNC(=O)c1cc(-c2ccccc2)nc2ccccc12)c1cc(-c2ccccc2)nc2ccccc12              -2
1  CC(=O)O/N=C1C=C/C(=C(/C#N)c2ccccc2)C=C/1C               2
2  C=COC(=O)N[C@H]1CCc2cc(OC)c(OC)c(OC)c2-c2ccc(SC)c(=O)cc21              -5

What the record says about CCCCCCCCCCCCCCCCCCN(C)C(COC)COP(=O)([O-])OCC[N+](C)(C)C (centres undefined) : growth inhibition is 14

What the record says about `O=C(c1ccccc1)[C@H]1Nc2ccc(Cl)cc2[C@H]2OCCC[C@@H]12` : growth inhibition is -19

What the record says about `COc1ccccc1NC(=O)c1ccc(Cl)cc1` : growth inhibition is -2

---

Recorded growth inhibition, one value per entry.
Experiment: NCI Yeast Anticancer Drug Screen. Data for the mec2-1 strain (AID 157)
Settings: S. cerevisiae mec2-1 strain, at 1.2 µM, stronger effect = higher value
The panel holds about 79,000 compounds, 15% with a hit somewhere; the sample as a whole holds those more often. Active and inactive are the calls of the source. Rule as the data show it: active = growth inhibition above about 70%; inactive = the rest.

In [3]: df
Out[3]:
                                   compound     endpoint_label           result
0                  CC(C)C(c1ccccc1)c1ccccc1  growth inhibition    2% (inactive)
1  COc1ccc(C(C)c2cc3c(cc2OCC(C)=O)OCO3)cc1 (stereo not drawn)  growth inhibition   -3% (inactive)
2  CCCCCCNCCCNc1c2cc(OC)ccc2nc2cccc([N+](=O)[O-])c12  growth inhibition   -1% (inactive)
3  O=C(Cc1ccccc1)NNc1nc(NNC(=O)c2ccncc2)nc(Nc2ccc(Cl)cc2)n1  growth inhibition   -3% (inactive)
4  NC(=S)N1N=C2c3ccccc3CC[C@H]2[C@@H]1c1ccc(Cl)cc1  growth inhibition  -17% (inactive)

What the record says about `O=c1cccccc1[O-].O=c1cccccc1[O-].O=c1cccccc1[O-].[Eu+3]` : growth inhibition is -1% (inactive)

What the record says about CC1(C)C(O)OC(O)C1(C)C (stereo not drawn) : growth inhibition is 0% (inactive)

What the record says about COc1cccc(C(NC2=NCCC=N2)c2cc3c(cc2O)OCO3)c1O (stereo not drawn) : growth inhibition is 1% (inactive)

What the record says about `O=C(NO)c1coc2ccccc2c1=O` : growth inhibition is -3% (inactive)

What the record says about `O=[N+]([O-])c1cccc2nc3ccccc3c(NCCCN3CCCCC3)c12` : growth inhibition is 73% (active)

What the record says about CC(=O)CC(c1ccccc1)c1c(O)c2ccccc2oc1=O (stereo not drawn) : growth inhibition is -9% (inactive)

What the record says about CCOC(=O)CC1(C)/C(=N\Nc2ccc([N+](=O)[O-])cc2[N+](=O)[O-])CCC2C1CCC1(C)C(C(C)CCCC(C)C)CCC21 (stereo not drawn) : growth inhibition is -4% (inactive)

What the record says about `CCOc1ccc2nc3ccccc3c(N)c2c1` : growth inhibition is 5% (inactive)

What the record says about COc1cc(C2C3=C(COC3=O)Oc3cc4c(cc32)OCO4)cc(OC)c1O (stereo not drawn) : growth inhibition is 12% (inactive)

---

Assay: NCI Yeast Anticancer Drug Screen. Data for the sgs1 strain (AID 173);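 also: 0% = growth of vehicle-only control cultures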
Settings: S. cerevisiae sgs1 mutant, at 11.0 µM, stronger effect = higher value
The panel holds about 79,000 compounds, 15% with a hit somewhere; the sample as a whole holds those more often. Residues, ends and D or L forms follow the SMILES beside them. *: point of attachment. Fmoc = O=C(OCC1c2ccccc2-c2ccccc21)*; Boc = CC(C)(C)OC(=O)*
Think of 40% as a floor: if growth inhibition stands on it or above, it is true; beneath it, false.

Solved cases below.
compound	discrete label
O=C(Cc1ccccc1)NNc1nc(NNC(=O)c2ccncc2)nc(Nc2ccc([N+](=O)[O-])cc2)n1	true
COC(=O)C1=C(C(=O)OC)CC(n2nnc(C(=O)OC)c2C(=O)OC)=CC1	false
CNC(=O)OCc1c2ccncc2c(C)c2c1[nH]c1ccccc12	true

Check this compound for growth inhibition at or above 40%: `CNCC(C)CNC`
false

Check this compound for growth inhibition at or above 40%: CCCCCCCSCC1C(=O)C23C(O)C1CCC2C12COC3(O)C(O)C1C(C)(C)CCC2O (stereo unspecified)
true

Check this compound for growth inhibition at or above 40%: `O=C(NCCNCCNC(=O)c1cc(-c2ccccc2)nc2ccccc12)c1cc(-c2ccccc2)nc2ccccc12`
false

Check this compound for growth inhibition at or above 40%: `NCCOc1ccc(/C(=C(/Cl)c2ccccc2)c2ccccc2)cc1`
true

Check this compound for growth inhibition at or above 40%: `CC1=CC(=C(c2ccc(N)c(C)c2)c2ccc(N)c(C)c2)C=CC1=N`
false

Check this compound for growth inhibition at or above 40%: `O=C1C=C(NCCc2cc(Br)c(O)c(Br)c2)C(=O)c2ncccc21`
true

Check this compound for growth inhibition at or above 40%: `O=[N+]([O-])c1cc(Cl)ccc1S(=O)(=O)c1ccc(Cl)cc1[N+](=O)[O-]`
false

Check this compound for growth inhibition at or above 40%: `O=C1C(=O)c2cccc([N+](=O)[O-])c2-c2ccccc21`
false

Check this compound for growth inhibition at or above 40%: `O=C(O)CNC(c1ccccc1)(c1ccccc1)c1ccccc1`
false

Check this compound for growth inhibition at or above 40%: CC(C)(C)OC(=O)NCCCCC(NC(=O)C(Cc1c[nH]c2ccccc12)NC(=O)OCC1c2ccccc2-c2ccccc21)C(=O)O (stereo unspecified) (Fmoc-Trp-Lys(Boc)-OH; configuration not given here)
false

Check this compound for growth inhibition at or above 40%: `C1=CCN([B-](c2ccccc2)[C+]2CCCCC2)C=C1`
false

Check this compound for growth inhibition at or above 40%: `NCCCSc1ccccc1`
false

Check this compound for growth inhibition at or above 40%: `O=[N+]([O-])c1ccc2nc(=S)[nH]n2c1`
false

Check this compound for growth inhibition at or above 40%: CCC[CH2][Ge]([CH2]CCC)([CH2]CCC)[O]C(=O)C(O)c1ccccc1 (stereo unspecified)
false

Check this compound for growth inhibition at or above 40%: COc1ccc2cc(C(C)C(=O)N3CCOC3=O)ccc2c1 (stereo unspecified)
false

Check this compound for growth inhibition at or above 40%: `CC(=O)Oc1ccc2c(c1)Cc1cc(N3C(=O)C=CC3=O)ccc1-2`
true

Check this compound for growth inhibition at or above 40%: `O=C(O)C(=Cc1ccc(-c2ccccc2)cc1)C(=O)O`
false

---

Recorded growth inhibition, one value per entry.
Assay: NCI Yeast Anticancer Drug Screen. Data for the mec2-1 strain (AID 157)
Settings: S. cerevisiae mec2-1 strain, at 5.0 µM (retest, dose inferred, filed as 0.5), stronger effect = higher value
About 79,000 compounds went through this panel and 15% of them were active in at least one assay; those are over-represented in the sample as a whole. The source made the active and inactive calls. Cut-off read from the data, not from the text of the source: active = growth inhibition above about 70%; inactive = the rest.

In [3]: df
Out[3]:
                                   compound     endpoint_label          result
0  O=C1C(=O)c2cccc([N+](=O)[O-])c2-c2ccccc21  growth inhibition  31% (inactive)
1  O=C1NC(c2cccc(OCc3ccccc3)c2)Nc2ccccc21 (configuration not stated)  growth inhibition  42% (inactive)
2  CC(/C=C/c1ccc([N+](=O)[O-])o1)=N/N1CC(CN2CCOCC2)OC1=O (configuration not stated)  growth inhibition   7% (inactive)
3                         CCCCCCCCNCCCCCCCC  growth inhibition   9% (inactive)
4  CCCCS(=O)(=O)Nc1ccc(Nc2c3ccccc3nc3ccccc23)c(OC)c1  growth inhibition  15% (inactive)

What the record says about `CSC(=S)N/N=C/c1ccccc1` : growth inhibition is 48% (inactive)

What the record says about `CC1CCN(CCC(=O)c2ccc([N+](=O)[O-])cc2)CC1` : growth inhibition is 4% (inactive)

What the record says about NC(CCCCCCCCCCCCC(N)C(=O)c1ccccc1)C(=O)c1ccccc1 (configuration not stated) : growth inhibition is -15% (inactive)

---

Test: NCI Yeast Anticancer Drug Screen. Data for the CLN2oe strain (AID 163);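 also: 0% = growth of vehicle-only control cultures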
Settings: S. cerevisiae CLN2oe strain, at 11.0 µM, stronger effect = higher value
About 79,000 compounds went through this panel and 15% of them were active in at least one assay; those are over-represented in the sample as a whole.
endpoint label: growth inhibition (%)
Report the figure in % without appending any unit label.

Reference set (2 entries):
>>> df
                           compound  numeric_result
0        C/C(=N\Sc1ccccc1)c1ccccc1O               2
1  C/C(=N/NC(=S)Nc1ccccc1C)c1ccccn1              -9

What the record says about C/C(=N\OCC(O)CNCCSCc1ccccc1)c1ccccc1Cl (configuration not stated) : growth inhibition is 30

What the record says about CC1(C)C(O)OC(O)C1(C)C (configuration not stated) : growth inhibition is 0

What the record says about `O=C1C=C(Br)C(=O)c2ccccc21` : growth inhibition is 47

What the record says about `CCCCN(CCCC)c1ccc(N=Nc2ccc(S(=O)(=O)O)cc2)cc1` : growth inhibition is -8

What the record says about CC1=NN(C(=O)CC(=O)NC(=O)/C=C\c2ccccc2)C(=O)C1N=Nc1ccc([N+](=O)[O-])cc1 (configuration not stated) : growth inhibition is 20

What the record says about `O=C(Oc1ccc([N+](=O)[O-])cc1)c1ccc([N+](=O)[O-])cc1` : growth inhibition is 2

What the record says about `CCCCCCCC/C=C\CCCCCCCCN` : growth inhibition is 28

What the record says about `N#C/C(=C\NC(=S)Nc1ccc(S(N)(=O)=O)cc1)C(=O)c1ccc2ccccc2c1` : growth inhibition is -4

What the record says about `O=C1C(=O)c2cccc([N+](=O)[O-])c2-c2ccccc21` : growth inhibition is -1

What the record says about CCC(C)COC(=O)Nc1cccc(Cl)c1 (configuration not stated) : growth inhibition is -7
